conditions-used: 373.15 K; 101.33 kPa; Liquid
Measured viscosity of individual entries
Lab book: enter the figure in mPa·s, no units written.

Worked examples follow.
CCCCCCCC[n+]1ccn(C)c1.N[C@@H](CO)C(=O)[O-] [1-methyl-3-octyl-1H-imidazol-3-ium L-serinate] = 26.2
CCCCCCCC[n+]1ccn(C)c1.NC(=O)C[C@H](N)C(=O)[O-] [1-methyl-3-octylimidazolium L-asparaginate] = 43.5
CCCCCCCC[n+]1ccn(C)c1.C[C@H](N)C(=O)[O-] [1-methyl-3-octylimidazolium L-alaninate] = 15.2
CCCCCCCCn1cc[n+](C)c1.O=C([O-])[C@@H]1CCCN1 [1-methyl-3-octyl-1H-imidazol-3-ium L-prolinate] = 22.4

Now, please, on to the next molecule.
Reported viscosity for CCCCCCCCn1cc[n+](C)c1.NCC(=O)[O-] [1-methyl-3-octylimidazolium glycinate] : what is it?
13.3

###

conditions-used: 353.15 K; 101.33 kPa; Liquid
parameter-measured: viscosity (mPa·s)
Lab book: enter the figure in mPa·s, no units written.

Worked examples follow.
CCCCCCCC[n+]1ccn(C)c1.N[C@@H](CO)C(=O)[O-] [1-methyl-3-octyl-1H-imidazol-3-ium L-serinate] = 56.2
CCCCCCCC[n+]1ccn(C)c1.NC(=O)C[C@H](N)C(=O)[O-] [1-methyl-3-octylimidazolium L-asparaginate] = 107.1
CCCCCCCC[n+]1ccn(C)c1.C[C@H](N)C(=O)[O-] [1-methyl-3-octylimidazolium L-alaninate] = 29.1

Reported viscosity for CCCCCCCCn1cc[n+](C)c1.NCC(=O)[O-] [1-methyl-3-octylimidazolium glycinate] : what is it?
24.4

Same question, CCCCCCCCn1cc[n+](C)c1.O=C([O-])[C@@H]1CCCN1 [1-methyl-3-octyl-1H-imidazol-3-ium L-prolinate] this time
47.2

###

conditions-used: 303.15 K; 101.33 kPa; Liquid
parameter-measured: log10(viscosity) (log10 of the value in mPa·s)
Units before log transform: mPa·s; reported quantity: viscosity; transform: log10.

Worked examples follow.
CCCCCCCC[n+]1ccn(C)c1.NC(=O)C[C@H](N)C(=O)[O-] [1-methyl-3-octylimidazolium L-asparaginate] = 3.55
CCCCCCCC[n+]1ccn(C)c1.C[C@H](N)C(=O)[O-] [1-methyl-3-octylimidazolium L-alaninate] = 2.54
CCCCCCCC[n+]1ccn(C)c1.N[C@@H](CO)C(=O)[O-] [1-methyl-3-octyl-1H-imidazol-3-ium L-serinate] = 3.07
CCCCCCCCn1cc[n+](C)c1.O=C([O-])[C@@H]1CCCN1 [1-methyl-3-octyl-1H-imidazol-3-ium L-prolinate] = 2.92

Now, please, on to the next compound.
Reported log10(viscosity) for CCCCCCCCn1cc[n+](C)c1.NCC(=O)[O-] [1-methyl-3-octylimidazolium glycinate] : what is it?
2.39

###

conditions-used: 333.15 K; 101.33 kPa; Liquid; Vibrating tube method
parameter-measured: mass density (kg/m3)
Lab book: enter the figure in kg/m3, no units written.

Worked examples follow.
CCCCCCCCn1cc[n+](C)c1.NCC(=O)[O-] [1-methyl-3-octylimidazolium glycinate] = 1016.8
CCCCCCCC[n+]1ccn(C)c1.N[C@@H](CO)C(=O)[O-] [1-methyl-3-octyl-1H-imidazol-3-ium L-serinate] = 1049.7
CCCCCCCC[n+]1ccn(C)c1.C[C@H](N)C(=O)[O-] [1-methyl-3-octylimidazolium L-alaninate] = 972.9

Reported mass density for CCCCCCCC[n+]1ccn(C)c1.NC(=O)C[C@H](N)C(=O)[O-] [1-methyl-3-octylimidazolium L-asparaginate] : what is it?
1048.6

Same question, CCCCCCCCn1cc[n+](C)c1.O=C([O-])[C@@H]1CCCN1 [1-methyl-3-octyl-1H-imidazol-3-ium L-prolinate] this time
1039.1
